Values compiled from paper PMC4270692.

assayed-target: L. donovani NMT (Leishmania donovani)
Sequence (D0AB09 1-421): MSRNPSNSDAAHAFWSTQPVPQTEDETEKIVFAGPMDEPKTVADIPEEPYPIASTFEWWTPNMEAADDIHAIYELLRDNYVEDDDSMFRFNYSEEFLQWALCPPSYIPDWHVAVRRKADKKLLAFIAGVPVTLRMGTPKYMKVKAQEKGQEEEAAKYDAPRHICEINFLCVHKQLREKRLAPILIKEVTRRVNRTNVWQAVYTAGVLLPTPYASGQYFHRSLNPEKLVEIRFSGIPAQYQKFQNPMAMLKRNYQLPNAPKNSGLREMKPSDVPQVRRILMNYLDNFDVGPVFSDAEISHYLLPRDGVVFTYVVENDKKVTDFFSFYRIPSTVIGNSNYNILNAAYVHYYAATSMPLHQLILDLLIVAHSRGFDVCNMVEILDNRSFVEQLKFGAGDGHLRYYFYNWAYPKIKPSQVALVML
procedure-details: biochemical
Format: biochemical
recorded-metric: IC50 (nM)
Numbers only, in nM.

State the recorded IC50 for this entry: CN1CCC(N(C)c2nc(N(C)CCC#N)c3sccc3n2)CC1
281

====

assayed-target: L. donovani NMT (Leishmania donovani)
procedure-details: biochemical
Format: biochemical
experimental-parameters: read-out: IC50 L. donovani NMT
recorded-metric: pIC50
Numbers only, as −log10 of the molar value.

Request: pIC50, test system L. donovani NMT (Leishmania donovani), entry N[C@@H](CC(=O)N1C[C@H](CO)[C@@H](c2ccc(Cl)cc2)C1)Cc1ccc(Cl)cc1
7.12
